Consider the following binders and their measured % decrease in ThT fluorescence readings.
molecular target: α-synuclein (UniProt P37840 1-140); assay: cell-based or functional assay; also: test concentration or dose not given here
Non-standard residues stand in square brackets, D forms with d.

{"columns": ["binder", "% decrease in ThT fluorescence (%)"],
 "data": [
  ["Ac-[dE][dK][dY][dS][dV][dL][dI]-NH2 (SMILES CC[C@@H](C)[C@@H](NC(=O)[C@@H](CC(C)C)NC(=O)[C@H](NC(=O)[C@@H](CO)NC(=O)[C@@H](Cc1ccc(O)cc1)NC(=O)[C@@H](CCCCN)NC(=O)[C@@H](CCC(=O)O)NC(C)=O)C(C)C)C(N)=O) [ZP-0213]", 25.6],
  ["Ac-[dQ][dY][dS][dV][dP][dI]-NH2 (SMILES CC[C@@H](C)[C@@H](NC(=O)[C@H]1CCCN1C(=O)[C@H](NC(=O)[C@@H](CO)NC(=O)[C@@H](Cc1ccc(O)cc1)NC(=O)[C@@H](CCC(N)=O)NC(C)=O)C(C)C)C(N)=O) [ZP-0204]", 1.4],
  ["Ac-[dH][dH][dT][dE][dV][dY]-NH2 (SMILES CC(=O)N[C@H](Cc1c[nH]cn1)C(=O)N[C@H](Cc1c[nH]cn1)C(=O)N[C@@H](C(=O)N[C@H](CCC(=O)O)C(=O)N[C@@H](C(=O)N[C@H](Cc1ccc(O)cc1)C(N)=O)C(C)C)[C@H](C)O) [ZP-0193]", 8.7],
  ["Ac-[dD][dR][dY][dS][dV][dL][dI]-NH2 (SMILES CC[C@@H](C)[C@@H](NC(=O)[C@@H](CC(C)C)NC(=O)[C@H](NC(=O)[C@@H](CO)NC(=O)[C@@H](Cc1ccc(O)cc1)NC(=O)[C@@H](CCCNC(=N)N)NC(=O)[C@@H](CC(=O)O)NC(C)=O)C(C)C)C(N)=O) [ZP-0214]", 20.4],
  ["Ac-[dH][dH][dT][dI][dV][dV]-NH2 (SMILES CC[C@@H](C)[C@@H](NC(=O)[C@H](NC(=O)[C@@H](Cc1c[nH]cn1)NC(=O)[C@@H](Cc1c[nH]cn1)NC(C)=O)[C@H](C)O)C(=O)N[C@@H](C(=O)N[C@@H](C(N)=O)C(C)C)C(C)C) [ZP-0175]", 21.9]
]}
